# Tested on: human colorectal cancer cell line COLO-320DM
# Assay Procedure: Cell proliferation inhibitory activity test (Celltiter-Glo)
# Assay type: cell-based
# Protocol Conditions: COLO-320DM cells, 96 hours

| Compound | GI50 |
| --- | --- |
| CN1c2ccccc2C(=O)NC1c1c[nH]nc1-c1cccc(-c2ccccc2)c1 (centres unmarked) | ≥ 10 µM |
| CN1c2ccccc2C(=O)NC1c1n[nH]nc1-c1ccc(-c2ccc(N3CCOCC3)cc2)cc1 (centres unmarked) | ≥ 10 µM |
| CN1c2ccccc2C(=O)NC1c1c[nH]nc1-c1cccc(F)c1 (centres unmarked) | 1 to 10 µM |
| COc1ccc(-c2n[nH]nc2C2NC(=O)c3ccccc3N2)cc1 (centres unmarked) | 1 to 10 µM |
| CN1c2ccccc2C(=O)NC1c1c[nH]nc1-c1ccc(F)cc1 (centres unmarked) | ≥ 10 µM |
